# tested-target: bio-RBD Fc Acro (SARS-CoV-2)
# experimental-details: SPR, single trace

- binder: "vS07_29B10 (designed binder, also called R3b) MRGSHHHHHHGSDLGKKLLQAARAGQLDEVRELLKAGADVNAKDREGITPLHLAAQHGHLEIVEVLLKAGADVNAKDVWGRTPLHLAAWQGHLEIVEVLLKAGADVNAKDLAGATPLHVAALYGHLEIVEVLLKAGADVNAQDKSGKTPADLAARAGHQDIAEVLQKAA"
  binding result: "binds"
- binder: "vS07_23E04 (designed binder, also called R3c) MRGSHHHHHHGSDLGKKLLQAARAGQLDEVRELLKAGADVNAKDQEGITPLHVAAHQGHLEIVEVLLKAGADVNAKDVWGRTPLHLAAWRGHLEIVEVLLKAGADVNAKDHAGATPLHAAALSGHLEIVEVLLKAGADVNAQDKSGKTPADLAARAGHQDIAEVLQKAA"
  binding result: "binds"
- binder: "vS07_19G10 (designed binder, also called R2a) MRGSHHHHHHGSDLGNKLLDAAWVGQDDEVRILLAAGADVNAKDWQGETPLHLAATKGHLEIVEVLLKAGADVNAKDVVGYTPLHVAASQGHLEIVEVLLKAGADVNAQDVHGYTPADLAAQAGHEDIAEVLQKAA"
  binding result: "binds"
